Tested on: A. baumannii ATCC 17978
assayExplanation: Checkerboard assay
Format: cell-based, Acinetobacter baumannii
runParameters: A. baumannii ATCC 17978
Bridge positions count the residues as written; N and C are the ends. Square brackets hold non-standard residues; d marks the D form. Peptide text beside a SMILES is read from it. * marks the point of attachment. X1 = CC[C@H](C)CCCCC(=O)*; Dab = NCC[C@H](N)C(=O)O
measuredEndpoint: MIC alone, Antibiotic (µg/mL)
Numbers only; they are read as µg/mL.

Known results for compounds:
compound: CO[C@H]1/C=C/O[C@@]2(C)Oc3c(C)c(O)c4c(O)c(cc(O)c4c3C2=O)NC(=O)/C(C)=C\C=C\[C@H](C)[C@H](O)[C@@H](C)[C@@H](O)[C@@H](C)[C@H](OC(C)=O)[C@@H]1C
MIC alone, Antibiotic (µg/mL): 4

compound: CC[C@H](C)CCCCC(=O)N[C@@H](CCN)C(=O)N[C@H](C(=O)N[C@@H](CCN)C(=O)N[C@H]1CCNC(=O)[C@H]([C@@H](C)O)NC(=O)[C@H](CCN)NC(=O)[C@H](CCN)NC(=O)[C@H](CC(C)C)NC(=O)[C@@H](CC(C)C)NC(=O)[C@H](CCN)NC1=O)[C@@H](C)O [Colistin] (X1-[Dab]T[Dab][Dab][Dab][dL]L[Dab][Dab]T; lactam 4-C (inferred); N-terminus assumed)
MIC alone, Antibiotic (µg/mL): 1

compound: NC[C@H]1O[C@H](O[C@H]2[C@H](O)[C@@H](O[C@H]3O[C@H](CO)[C@@H](O)[C@H](N)[C@H]3O)[C@H](N)C[C@@H]2N)[C@H](N)C[C@@H]1O
MIC alone, Antibiotic (µg/mL): 2

compound: NC[C@H]1O[C@H](O[C@H]2[C@H](O)[C@@H](O[C@H]3O[C@H](CO)[C@@H](O)[C@H](N)[C@H]3O)[C@H](N)C[C@@H]2N)[C@H](O)[C@@H](O)[C@@H]1O.O=S(=O)(O)O [Kanamycin sulphate]
MIC alone, Antibiotic (µg/mL): 4

# input compound: NCC[C@H](O)C(=O)N[C@@H]1C[C@H](N)[C@@H](O[C@H]2O[C@H](CN)[C@@H](O)[C@H](O)[C@H]2O)[C@H](O)[C@H]1O[C@H]1O[C@H](CO)[C@@H](O)[C@H](N)[C@H]1O ; wanted: its MIC alone, Antibiotic
2

# input compound: C[C@@H](O)[C@H]1C(=O)N2C(C(=O)O)=C(SCCN=CN)C[C@H]12 ; wanted: its MIC alone, Antibiotic
2
